The reported measurements were obtained from PubChem BioAssay.

# ASSAY_COMMENT: AML differentiation inducers, ER-HoxA9 marrow cells – cell-based, GFP/MAC1 double positive, flow cytometry, validation set, primary screen (AID 588685);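 further: compound exposure lasts four days before antibody staining and flow analysis; 0% = DMSO wells and 100% = 5 µM fulvestrant positive control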
# ASSAY_SETUP: stronger effect = higher value, normalized: vehicle 0, fulvestrant 100
Assignment: determine reported differentiation response for the given compounds.
Answers are plain numbers, in %.

1) COc1ccc(CNC(=O)C2CCCN2C)cc1OC (stereo not drawn); -7.5
2) COc1ccc(CCn2c(C)nc3c(c(=O)c4ccccc4n3C)c2=O)cc1; 16.7
3) CC(C)CN1CCN(Cc2ccc3ncccc3c2)CC1CCO (stereo not drawn); 6.11

Provide the reported differentiation response of each entry below, same order.
1. COc1ccc(C(=O)NCCC2=CCCCC2)cc1[N+](=O)[O-]
2. COCC(C)NC(=O)c1ccc(CN2CCc3ccccc3C2)cc1 (stereo not drawn)
3. Cc1ccc(C)c(OCCCC(C)(C)C(=O)O)c1
4. CS(=O)c1ccccc1O (stereo not drawn)

-3.11
16.8
6.11
3.45

# map each compound to its differentiation response
1. CC(=O)c1cccc(NC(=O)N[C@@H](CC(C)C)C(=O)O)c1
2. COc1ccccc1C(=O)Oc1ccc2c(c1)O/C(=C\c1ccncc1)C2=O

1: 9.04; 2: 10.8

Dear colleague, could you send me differentiation response for each of the items below? Thanks.
1. CC(C)Cc1ccc(C(C)C(=O)O)cc1 (stereo not drawn)
2. O=C(CS(=O)(=O)Cc1ccccc1)NCc1ccc2c(c1)OCO2
3. N/C(=N\OC(=O)CCCOc1ccc(Cl)cc1Cl)c1ccccn1
4. Cc1ccc(S(=O)(=O)NC(C(=O)Oc2cc3oc(=O)cc(C)c3cc2Cl)C(C)C)cc1 (stereo not drawn)
5. Nc1nc(Cl)nc2c1ncn2[C@@H]1O[C@H](CO)[C@@H](O)[C@H]1O
6. O=[N+]([O-])c1ccc(O)c2ncccc12
7. Clc1cc(-c2ccc(/C=N/n3cnnc3)o2)ccc1Br

1: -1.05; 2: 5.73; 3: -5.68; 4: -0.06; 5: 1.64; 6: -3.02; 7: -4.57

State the recorded differentiation response for every item in the following list.
1. CC(=O)CSc1ncnc2c1cnn2-c1ccccc1
2. COC(=O)c1cc(OC)c(OC)cc1NC(=O)CN1C(=O)c2ccccc2C1=O
3. Cc1ccc2[nH]c3c(=O)n(CCc4cnc[nH]4)cnc3c2c1
4. CC1(C#CC[N+]2(C)CCCCC2)CCC2C(O1)c1ccccc1OC2(C)C (stereo not drawn)
5. Fc1ccc(C(c2ccc(F)cc2)N2CCN(C/C=C/c3ccccc3)CC2)cc1

1. 6.55
2. -23.2
3. -14.8
4. -10.4
5. 4.09

Would you mind giving differentiation response for every compound in the list below?
1. O=C(c1ccc(Cl)cc1)C1CCCN(C(=O)/C=C/c2ccccn2)C1 (stereo not drawn)
2. CCOCCn1c(C(C)O)nc2ccccc21 (stereo not drawn)

[-1.05, 7.09]

Please go through the list and note differentiation response for each compound.
1. COc1c(O)ccc2c1CN1CCc3cc4c(cc3C1C2)OCO4 (stereo not drawn)
2. COc1cc2oc(-c3ccc(O)cc3)cc(=O)c2c(OC)c1O
3. O=c1c2ccccc2nc2n1CCCN2
4. CC(=O)Nc1c(I)c(NC(C)=O)c(I)c(C(=O)O)c1I
5. CN(C)CCOCCOc1ccc(Cl)cc1Br

[23.2, 8.59, -16.8, 2.46, 13.1]

// input: 7 compounds below; output: differentiation response for each
1. COc1ccc2oc(-c3ccco3)cc(=O)c2c1
2. CCCCCCC(=O)N(O)C1CC(=O)N(Cc2ccccc2)C1=O (stereo not drawn)
3. O=C1OC(c2ccccc2)=C/C1=C/c1cccs1
4. CCCCCC(=O)O[C@]1(C(C)=O)CC[C@H]2[C@@H]3CCC4=CC(=O)CC[C@]4(C)[C@H]3CC[C@@]21C
5. O=C1C2CC=C(Cl)CC2C(=O)N1CCc1c[nH]c2ccccc12 (stereo not drawn)
6. COc1ccc(Br)cc1C(=O)Nc1ccc(C(=O)O)cc1
7. CC12CCC(C(=O)N(CCC#N)CCC#N)(CC1=O)C2(C)C (stereo not drawn)

1: -3.4; 2: -4.64; 3: 3.18; 4: -0.18; 5: -12.3; 6: 5.13; 7: 2.4

Provide differentiation response values for the following items, in order.
1. CC(C)OC(=O)C1C2C=CC3(CN(CC4CCCO4)C(=O)C13)O2 (stereo not drawn)
2. CC12COC3(C(=O)Nc4ccc(F)cc4)CC1CCC32C (stereo not drawn)
3. C=CC1=C(C(=O)O)N2C(=O)C(NC(=O)Cc3ccccc3)C2SC1 (stereo not drawn)
4. C/C(CCc1oc2ccc(Cl)cc2c1-c1ccc(C)o1)=N\O
5. CCCCC(=O)O[C@H]1CC[C@H]2[C@@H]3CCc4cc(O)ccc4[C@H]3CC[C@]12C
6. COc1cc(C(=O)Nc2ccc(N(C)C)cc2)c([N+](=O)[O-])cc1OC
7. Cc1ccc(/C=N/Nc2nc(C(C)(C)C)cs2)o1

1. -16.8
2. -1.64
3. -31.2
4. 9.79
5. -6.96
6. 4.15
7. 7.2

----------
# Test system: Ras-related protein Rab-7a (dog), GTP binding
# ASSAY_COMMENT: blockers of fluorescent GTP binding to Rab7 – biochemical, wildtype, multiplex bead flow cytometry, dose response (AID 1336)
# ASSAY_SETUP: bead-based flow cytometry; series mostly up to 100 µM
Potency and affinity values are given separately. Activity calls are given as the source filed them. How the calls were made is not given here.
ASSAY_METRIC: GTP binding, % of control

Worked cases, GTP binding, % of control given:
1) Cc1ccc(-c2nnc3c4ccccc4c(C)nn23)cc1S(=O)(=O)N1CCN(CCO)CC1; inactive
2) N#CC(C#N)=C(Nc1ccc(F)cc1)SCc1cccc(Br)c1; inactive
3) Cc1ccc(S(=O)(=O)N2CC3(C)CN(S(=O)(=O)c4ccc(C)cc4)CC(C)(C2)C3O)cc1 (stereo not given); inactive
4) CCn1c(=N)c(S(=O)(=O)c2ccc(C)cc2)cc2c(=O)n3ccccc3nc21; inactive
5) O=C(O)/C=C\C(=O)Nc1cccc(C(=O)Nc2cccc(O)c2)c1; inactive
6) O=c1c2ccccc2nc2c3ccccc3c(NCc3ccccn3)nn12; inactive
7) CCOc1cccc(/C(O)=C2/C(=O)C(=O)N(CCOC)C2c2ccncc2)c1 (stereo not given); inactive
8) O=C(Cn1nc(-c2ccccc2)c2ccccc2c1=O)Nc1ccccn1; inactive
9) O=C(C#Cc1ccccc1)c1cccc([N+](=O)[O-])c1; inactive

What does the data say about its GTP binding, % of control? Entry: Cc1ccc(OCCn2c(SCCC(=O)O)nc3ccccc32)cc1 inactive

----------
# MEASUREMENT_TARGET: Beta-adrenergic receptor kinase 1 (Homo sapiens) (UniProt P25098)
# Sequence (P25098 whole entry, looked up): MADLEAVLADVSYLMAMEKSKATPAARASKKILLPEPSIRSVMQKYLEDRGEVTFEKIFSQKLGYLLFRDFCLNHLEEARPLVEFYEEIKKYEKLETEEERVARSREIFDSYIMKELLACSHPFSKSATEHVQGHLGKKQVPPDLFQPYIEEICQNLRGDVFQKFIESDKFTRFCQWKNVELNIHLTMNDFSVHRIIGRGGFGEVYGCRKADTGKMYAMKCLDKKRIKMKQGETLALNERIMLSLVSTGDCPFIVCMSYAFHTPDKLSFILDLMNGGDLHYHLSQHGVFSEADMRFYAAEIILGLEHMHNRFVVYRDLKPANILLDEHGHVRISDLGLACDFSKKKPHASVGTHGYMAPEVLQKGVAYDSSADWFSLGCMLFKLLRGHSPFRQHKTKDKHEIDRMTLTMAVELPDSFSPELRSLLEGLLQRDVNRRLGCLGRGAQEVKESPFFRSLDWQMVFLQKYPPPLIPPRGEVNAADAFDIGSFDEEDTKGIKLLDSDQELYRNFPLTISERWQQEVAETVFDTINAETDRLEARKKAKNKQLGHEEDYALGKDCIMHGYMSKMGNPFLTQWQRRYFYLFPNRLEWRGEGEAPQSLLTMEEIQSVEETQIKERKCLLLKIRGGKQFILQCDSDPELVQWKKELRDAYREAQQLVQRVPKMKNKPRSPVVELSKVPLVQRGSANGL
# ASSAY_COMMENT: GRK2 binders displacing RNA aptamer, biochemical, validation, human GRK2, bead flow cytometry (AID 488806)
# ASSAY_SETUP: bead-bound GRK2, FAM-aptamer displacement, at 10 µM, stronger effect = higher value
ASSAY_METRIC: aptamer binding inhibition (%)
Give bare numbers, in %.

Reference set (3 entries):
1. O=C(/C=C/c1ccccc1)c1ccccc1; 4
2. CO[C@H]1C=CO[C@@]2(C)Oc3c(C)c(O)c4c(O)c(c(C=NN5CCN(C)CC5)c(O)c4c3C2=O)NC(=O)C(C)=CC=C[C@H](C)[C@H](O)[C@@H](C)[C@@H](O)[C@@H](C)[C@H](OC(C)=O)[C@@H]1C; 3
3. CC(C)COCC(CN(Cc1ccccc1)c1ccccc1)N1CCCC1 (stereo not given); -2

// for each molecule in input: emit aptamer binding inhibition
1. COc1ccccc1/C=C/C(=O)OCCN1CCOCC1
2. Nc1ccc2cn[nH]c2c1
3. O=C(Cc1ccccc1[N+](=O)[O-])NCc1ccncc1
4. c1ccc(Nc2cccc3c(Nc4ccccc4)cccc23)cc1
5. CC(C)(C)C(=O)NCCCNc1ccc([N+](=O)[O-])cc1

-4
-1
7
1
-1

Record aptamer binding inhibition per entry; entries follow.
1. C#CCN1C(=O)C(O)(c2c(C)[nH]c3ccccc23)c2ccccc21 (stereo not given)
2. CC(C)COC(=O)C1C(=O)CC(C)(O)C(C(=O)OCC(C)C)C1c1cccnc1 (stereo not given)
3. Cc1cccc(N2CCN(C(=S)c3ccccc3)CC2)c1
4. CC(=O)Nc1ccccc1O
5. COc1cc(C)nc(-n2nc(C)cc2OC)n1

[3, 2, 0, 6, 1]

----------
What differentiation response was measured for each of the following?
# ASSAY_COMMENT: AML differentiation inducers, ER-HoxA9 marrow cells – cell-based, GFP/MAC1 double positive, flow cytometry, validation set, primary screen (AID 588685);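 further: compound exposure lasts four days before antibody staining and flow analysis; 0% = DMSO wells and 100% = 5 µM fulvestrant positive control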
# ASSAY_SETUP: stronger effect = higher value, normalized: vehicle 0, fulvestrant 100
The source made the active and inactive calls.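 Rule for the calls: active = differentiation response of at least 50%, scaled between solvent and reference control, from cells with both markers; inactive = the rest.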

Guide cases for differentiation response, answers given:
1. Cc1ccc(SCC(=O)Nc2nccs2)cc1; -2.4% (inactive)
2. O=C(O)C1[C@H]2C(=O)N(C3CCCC3)C[C@]23C=C[C@H]1O3 (some centres not stated); -6.96% (inactive)
3. COc1cc(C(=O)OCCn2c(=O)c3c(ncn3CCN(C)C)n(C)c2=O)cc(OC)c1OC; -6.96% (inactive)
4. CN(C)CC/C=C1\c2ccccc2Sc2ccc(Cl)cc21; -17.7% (inactive)
5. CCOc1ccc2ccccc2c1CNc1nnnn1C; 13.9% (inactive)
6. c1ccc(-c2ccc(C(c3ccccc3)n3ccnc3)cc2)cc1 (configuration not stated); -2.03% (inactive)
7. COCCOC(=O)C1=C(C)NC(C)=C(C(=O)OC(C)C)C1c1cccc([N+](=O)[O-])c1 (configuration not stated); -10.5% (inactive)
8. COc1ccccc1C(O)c1nccn1C (configuration not stated); -7.37% (inactive)

// batch mode: one differentiation response value per listed entry
1. CCc1c(C(C)=O)oc2ccc3c(C)cc(=O)oc3c12
2. CCCC(CCC)C(=O)OC1C[C@H]2CC[C@@H](C1)[N+]2(C)C (some centres not stated)

1: 9.01% (inactive); 2: 3.28% (inactive)

Would you mind giving differentiation response for every compound in the list below?
1. O=Cc1ccccc1Oc1ccccc1
2. CN(C)CCN(Cc1ccccc1)c1ccccn1

["33.6% (inactive)", "-1.64% (inactive)"]
